target: human recombinant P2X7 receptors (Homo sapiens, UniProt Q99572); construct: expressed in transfected cells; assay: Ethidium Accumulation Assay 1 (HEK293 cells, ATP-induced ethidium uptake); assay type: cell-based; details: HEK293 cells expressing human P2X7; 1 mM ATP; sometimes mean of more than one measurement; read-out: Assay 1 (antagonist pIC50 for blocking ATP responses) (converted)
Sequence (Q99572 whole entry): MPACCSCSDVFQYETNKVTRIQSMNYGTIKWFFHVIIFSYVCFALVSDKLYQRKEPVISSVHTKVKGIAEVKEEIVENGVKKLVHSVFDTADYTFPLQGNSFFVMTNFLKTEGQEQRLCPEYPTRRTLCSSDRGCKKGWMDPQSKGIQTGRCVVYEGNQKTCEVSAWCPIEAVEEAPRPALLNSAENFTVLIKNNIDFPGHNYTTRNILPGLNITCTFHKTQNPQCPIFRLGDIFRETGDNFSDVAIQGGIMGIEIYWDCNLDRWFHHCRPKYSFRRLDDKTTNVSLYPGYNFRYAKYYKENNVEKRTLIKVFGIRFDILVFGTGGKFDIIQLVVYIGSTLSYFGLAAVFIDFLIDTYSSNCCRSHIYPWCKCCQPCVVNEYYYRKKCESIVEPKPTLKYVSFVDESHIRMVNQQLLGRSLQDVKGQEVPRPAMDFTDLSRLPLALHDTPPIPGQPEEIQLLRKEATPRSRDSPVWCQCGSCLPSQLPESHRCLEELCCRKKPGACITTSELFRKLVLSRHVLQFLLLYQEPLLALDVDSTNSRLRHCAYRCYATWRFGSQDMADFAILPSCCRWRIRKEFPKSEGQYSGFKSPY
MEASURED_PARAMETER: IC50

Find IC50 (human recombinant P2X7 receptors (Homo sapiens, UniProt Q99572)) for the entry O=C(c1c(F)cccc1Cl)N1CCn2c(nnc2-c2ccccn2)C1
< 501 nM

Find IC50 (human recombinant P2X7 receptors (Homo sapiens, UniProt Q99572)) for the entry Cc1ncccc1-c1nnc2n1CCN(C(=O)c1cccc(C(F)(F)F)c1Cl)C2
< 100 nM

Find IC50 (human recombinant P2X7 receptors (Homo sapiens, UniProt Q99572)) for the entry O=C(c1ccc(F)cc1Cl)N1CCn2c(nnc2-c2cccnn2)C1
< 501 nM

Find IC50 (human recombinant P2X7 receptors (Homo sapiens, UniProt Q99572)) for the entry O=C(c1ccc(Cl)cc1F)N1CCn2c(nnc2-c2ccccn2)C1
< 100 nM

Find IC50 (human recombinant P2X7 receptors (Homo sapiens, UniProt Q99572)) for the entry O=C(c1ccc(Cl)c(F)c1Cl)N1CCn2c(nnc2-c2ccc(F)cn2)C1
< 10 nM

Find IC50 (human recombinant P2X7 receptors (Homo sapiens, UniProt Q99572)) for the entry O=C(c1cccc(Cl)c1Cl)N1CCn2c(nnc2-c2ccncn2)C1
< 10 nM

Find IC50 (human recombinant P2X7 receptors (Homo sapiens, UniProt Q99572)) for the entry CNc1nnc2n1CCN(C(=O)c1cccc(C(F)(F)F)c1Cl)C2
< 501 nM

Find IC50 (human recombinant P2X7 receptors (Homo sapiens, UniProt Q99572)) for the entry O=C(c1cccc(C(F)(F)F)c1F)N1CCn2c(nnc2-c2ccccn2)C1
< 10 nM

Find IC50 (human recombinant P2X7 receptors (Homo sapiens, UniProt Q99572)) for the entry Cn1cccc1-c1nnc2n1CCN(C(=O)c1cccc(Cl)c1Cl)C2
< 100 nM
